The reported numbers originate from patent US12109197B2.

Assay: Multiple-dose study of sulopenem delivered intravenously: plasma pharmacokinetics
Type: in vivo, human
Settings: human, plasma, iv, 1200 mg, intravenous 1200 mg (1 h BID); Day 14

smiles-notation: C[C@@H](O)[C@H]1C(=O)N2C(C(=O)O)=C(S[C@H]3CC[S@@+]([O-])C3)S[C@H]12
half-life (h): 1.05

====

Assay: Multiple-dose study of sulopenem delivered intravenously: plasma pharmacokinetics
Format: in vivo, human
Conditions: human, plasma, iv, 800 mg, intravenous 800 mg (3 h BID); Day 1
measurement-kind: AUC(0-inf) (ng·h/mL)

smiles-notation: C[C@@H](O)[C@H]1C(=O)N2C(C(=O)O)=C(S[C@H]3CC[S@@+]([O-])C3)S[C@H]12
readout-units: ng·h/mL
readout-value: 22400

====

Assay: Multiple-dose study of sulopenem delivered intravenously: plasma pharmacokinetics
Assay type: in vivo, human
Settings: human, plasma, iv, 1600 mg, intravenous 1600 mg (1.5 h BID); Day 14
Procedure: The pharmacokinetics of sulopenem delivered intravenously were studied in a randomized, investigator-blind, subject-blind, sponsor-open, placebo-controlled, multiple-dose study of sulopenem. There were 5 cohorts dosed. Each subject was dosed for up to 14 days. Each cohort consisted of 10 subjects.
measurement-kind: AUC(0-t) (ng·h/mL)

smiles-notation: C[C@@H](O)[C@H]1C(=O)N2C(C(=O)O)=C(S[C@H]3CC[S@@+]([O-])C3)S[C@H]12
readout-value: 54700

====

Assay: Multiple-dose study of sulopenem delivered intravenously: plasma pharmacokinetics
Assay type: in vivo, human
Conditions: human, plasma, iv, 1200 mg, intravenous 1200 mg ([…] BID); Day 1
measurement-kind: half-life (h)

smiles-notation: C[C@@H](O)[C@H]1C(=O)N2C(C(=O)O)=C(S[C@H]3CC[S@@+]([O-])C3)S[C@H]12
readout-units: h
readout-value: 1.12

====

Test: Multiple-dose study of sulopenem delivered intravenously: plasma pharmacokinetics
Format: in vivo, human
Conditions: human, plasma, iv, 2000 mg, intravenous 2000 mg (1.5 h BID); Day 1; median [range]

compound: C[C@@H](O)[C@H]1C(=O)N2C(C(=O)O)=C(S[C@H]3CC[S@@+]([O-])C3)S[C@H]12 [sulopenem]
Tmax / h: 1.5

====

Assay: Multiple-dose study of sulopenem delivered intravenously: plasma pharmacokinetics
Type: in vivo, human
Conditions: human, plasma, iv, 1200 mg, intravenous 1200 mg ([…] BID); Day 14; median [range]
measurement-kind: Tmax (h)

compound: C[C@@H](O)[C@H]1C(=O)N2C(C(=O)O)=C(S[C@H]3CC[S@@+]([O-])C3)S[C@H]12 [sulopenem]
readout-value: 2

====

Test: Multiple-dose study of sulopenem delivered intravenously: plasma pharmacokinetics
Assay type: in vivo, human
Details: human, plasma, iv, 1200 mg, intravenous 1200 mg ([…] BID); Day 14

smiles-notation: C[C@@H](O)[C@H]1C(=O)N2C(C(=O)O)=C(S[C@H]3CC[S@@+]([O-])C3)S[C@H]12
readout-units: mL/min
CL renal: 313

====

Test: Multiple-dose study of sulopenem delivered intravenously: plasma pharmacokinetics
Assay type: in vivo, human
Conditions: human, plasma, iv, 1600 mg, intravenous 1600 mg (1.5 h BID); Day 14; median [range]

compound: C[C@@H](O)[C@H]1C(=O)N2C(C(=O)O)=C(S[C@H]3CC[S@@+]([O-])C3)S[C@H]12 [sulopenem]
Tmax, h: 1.25
